EC50 listing for selected binders.
- ASSAY SYSTEM: T1, human AXL with a cynomolgus monkey extracellular domain (ECD) (cynomolgus monkey (Macaca …, UniProt P30530 26-894))
- T1 construct: Chimera on transfected HEK293T cells; also called cynomolgus AXL; cynomolgus AXL-ECD
- T1 chain: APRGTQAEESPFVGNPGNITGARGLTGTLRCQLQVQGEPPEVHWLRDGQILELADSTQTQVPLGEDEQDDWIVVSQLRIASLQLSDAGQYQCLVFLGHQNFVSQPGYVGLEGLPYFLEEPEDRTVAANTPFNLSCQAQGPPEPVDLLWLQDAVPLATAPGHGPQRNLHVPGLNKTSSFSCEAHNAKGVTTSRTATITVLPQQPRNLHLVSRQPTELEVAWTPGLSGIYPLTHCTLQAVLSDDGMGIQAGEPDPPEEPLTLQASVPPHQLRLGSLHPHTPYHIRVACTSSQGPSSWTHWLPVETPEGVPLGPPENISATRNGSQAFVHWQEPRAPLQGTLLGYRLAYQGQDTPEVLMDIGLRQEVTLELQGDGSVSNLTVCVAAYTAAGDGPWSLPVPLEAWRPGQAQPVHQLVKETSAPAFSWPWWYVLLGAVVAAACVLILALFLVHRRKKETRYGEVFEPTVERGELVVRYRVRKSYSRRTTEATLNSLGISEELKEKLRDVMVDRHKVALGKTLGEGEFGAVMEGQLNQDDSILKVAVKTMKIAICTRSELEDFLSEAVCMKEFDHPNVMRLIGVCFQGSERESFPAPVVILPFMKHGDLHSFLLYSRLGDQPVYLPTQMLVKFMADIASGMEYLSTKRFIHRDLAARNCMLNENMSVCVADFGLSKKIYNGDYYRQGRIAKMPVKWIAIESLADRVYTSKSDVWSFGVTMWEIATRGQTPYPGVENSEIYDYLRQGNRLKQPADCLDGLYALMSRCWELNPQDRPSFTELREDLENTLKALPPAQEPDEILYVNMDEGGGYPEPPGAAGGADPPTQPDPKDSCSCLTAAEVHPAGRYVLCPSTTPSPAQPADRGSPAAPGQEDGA
- METHOD: flow cytometry, HEK293T cells with human AXL carrying cynomolgus ECD
Unit µg/mL implied. Number only.

{"BINDER": "IgG1-AXL-148 (antibody, V domains shown) VH: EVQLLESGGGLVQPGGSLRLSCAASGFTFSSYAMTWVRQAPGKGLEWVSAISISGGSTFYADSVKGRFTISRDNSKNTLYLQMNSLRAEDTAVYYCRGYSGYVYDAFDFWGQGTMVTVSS VL: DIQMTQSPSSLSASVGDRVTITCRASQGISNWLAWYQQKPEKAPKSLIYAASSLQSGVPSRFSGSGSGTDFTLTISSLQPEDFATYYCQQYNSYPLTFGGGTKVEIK", "ATTRIBUTE MEASURED": "EC50", "QUANTITATIVE READOUT": 0.152}
{"BINDER": "IgG1-AXL-733 (antibody, V domains shown) VH: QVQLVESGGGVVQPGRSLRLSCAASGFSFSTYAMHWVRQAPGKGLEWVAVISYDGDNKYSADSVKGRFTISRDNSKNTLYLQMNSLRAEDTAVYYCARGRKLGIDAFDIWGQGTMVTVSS VL: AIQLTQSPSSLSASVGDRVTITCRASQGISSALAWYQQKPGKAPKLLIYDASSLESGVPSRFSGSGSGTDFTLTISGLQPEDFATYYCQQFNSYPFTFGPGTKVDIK", "ATTRIBUTE MEASURED": "EC50", "QUANTITATIVE READOUT": 0.254}
{"BINDER": "IgG1-AXL-183-N52Q (antibody, V domains shown, Expressed as human IgG1,κ; also called IgG1-AXL-183-N520) VH: QVQLQQWGAGLLKPSETLSLTCAVYGGSFSGYYWSWIRQPPGKGLEWIGEIQQSGSTNYNPSLKSRVTISVDTSKNQFSLKLSSVTAADTSVYYCASGNWDHFFDYWGQGTLVTVSS VL: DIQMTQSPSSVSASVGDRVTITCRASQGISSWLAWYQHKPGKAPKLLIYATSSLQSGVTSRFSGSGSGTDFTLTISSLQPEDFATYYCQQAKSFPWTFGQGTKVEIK", "ATTRIBUTE MEASURED": "EC50", "QUANTITATIVE READOUT": 0.324}
{"BINDER": "IgG1-AXL-726 (antibody, V domains shown) VH: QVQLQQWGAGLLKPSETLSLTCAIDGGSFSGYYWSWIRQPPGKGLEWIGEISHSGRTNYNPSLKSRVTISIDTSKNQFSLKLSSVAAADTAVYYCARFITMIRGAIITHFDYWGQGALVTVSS VL: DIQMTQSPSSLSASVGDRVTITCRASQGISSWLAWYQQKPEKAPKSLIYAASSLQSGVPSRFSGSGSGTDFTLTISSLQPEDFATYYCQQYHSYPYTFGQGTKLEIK", "ATTRIBUTE MEASURED": "EC50", "QUANTITATIVE READOUT": 0.349}
{"BINDER": "IgG1-AXL-183 (antibody, V domains shown) VH: QVQLQQWGAGLLKPSETLSLTCAVYGGSFSGYYWSWIRQPPGKGLEWIGEINQSGSTNYNPSLKSRVTISVDTSKNQFSLKLSSVTAADTSVYYCASGNWDHFFDYWGQGTLVTVSS VL: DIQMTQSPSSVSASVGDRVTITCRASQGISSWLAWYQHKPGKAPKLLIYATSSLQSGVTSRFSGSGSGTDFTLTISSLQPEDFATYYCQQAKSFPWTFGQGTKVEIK", "ATTRIBUTE MEASURED": "EC50", "QUANTITATIVE READOUT": 0.309}

Moving on to another binder below.
# binder IgG1-AXL-726-M101L (antibody, V domains shown, Expressed as human IgG1,κ) VH: QVQLQQWGAGLLKPSETLSLTCAIDGGSFSGYYWSWIRQPPGKGLEWIGEISHSGRTNYNPSLKSRVTISIDTSKNQFSLKLSSVAAADTAVYYCARFITLIRGAIITHFDYWGQGALVTVSS VL: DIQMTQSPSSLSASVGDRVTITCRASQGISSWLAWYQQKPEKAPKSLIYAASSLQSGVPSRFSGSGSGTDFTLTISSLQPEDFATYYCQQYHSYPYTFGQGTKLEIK ; its EC50 = 0.25
